Reference source: the supplement of paper PMC10981050

Measured cell viability, listed per entry for reference.
Test system: MOLM14
Assay: cell viability relative to vehicle control; higher = less cytotoxic;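 also: after 48 h exposure read by CellTiter-Glo luminescence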
Details: 10 µM; SRSF2 genotype: SRSF2 wt/wt
# output: bare number, implied unit %

>  <Compound>
O=c1cc(-c2ccc(O)cc2)oc2c([C@@H]3O[C@H](CO)[C@@H](O)[C@H](O)[C@H]3O)c(O)cc(O)c12

>  <Readout Units>
%

>  <cell viability>
105

$$$$
>  <Compound>
C=CC(=O)N1CCN(C(=O)CNc2cc(I)c(Cl)cc2O)CC1 [K-Ras(G12C) inhibitor 12]

>  <Readout Units>
%

>  <cell viability>
81.2

$$$$
>  <Compound>
COc1cc(-c2ncn(/C=C\C(=O)OC(C)C)n2)cc(C(F)(F)F)c1

>  <Readout Units>
%

>  <cell viability>
0.92

$$$$
>  <Compound>
Cc1cc2c(C(=O)NCC(C)c3ccccc3)c(O)c(O)cc2c(O)c1-c1c(C)cc2c(C(=O)NCC(C)c3ccccc3)c(O)c(O)cc2c1O (stereo not drawn)

>  <Readout Units>
%

>  <cell viability>
13.7

$$$$
>  <Compound>
CC(=O)Oc1ccc2c(c1)Oc1cc(OC(C)=O)ccc1C21OC(=O)c2cc(C(=O)ON3C(=O)CCC3=O)ccc21.CC(=O)Oc1ccc2c(c1)Oc1cc(OC(C)=O)ccc1C21OC(=O)c2ccc(C(=O)ON3C(=O)CCC3=O)cc21

>  <Readout Units>
%

>  <cell viability>
63.6

$$$$
>  <Compound>
CC(O)C(O)c1cnc2nc(N)[nH]c(=O)c2n1 (stereo not drawn)

>  <Readout Units>
%

>  <cell viability>
106

$$$$
>  <Compound>
O=C(Cn1ccnc1[N+](=O)[O-])NCc1ccccc1

>  <Readout Units>
%

>  <cell viability>
99.4

$$$$

Q: For the compound Nc1ccc(S(=O)(=O)Nc2nccs2)cc1 , what cell viability is on record?
A: 102

* * *

Test system: MARIMO
Experiment: cell viability relative to vehicle control; higher = less cytotoxic
Conditions: 10 µM; SRSF2 genotype: SRSF2 P95H/wt
Structures can show the parent of a compound that is named as a salt.
Observable: cell viability (%)
# output: bare number, implied unit %

Answered examples (8):
>  <Compound>
CCC(=O)N1CCN(c2ccc(-n3c(=O)ccc4cnc5ccc(-c6cnc7ccccc7c6)cc5c43)cc2C(F)(F)F)CC1

>  <Assay Target>
MARIMO

>  <cell viability (%)>
64.6

$$$$
>  <Compound>
CC1=CCC(C(C)(C)O)CC1 (stereo unspecified)

>  <Assay Target>
MARIMO

>  <cell viability (%)>
101

$$$$
>  <Compound>
CCCCCCC1CCC(=O)O1 (stereo unspecified)

>  <Assay Target>
MARIMO

>  <cell viability (%)>
97.3

$$$$
>  <Compound>
COc1ccc(-c2ccc3c(N4CCOCC4)nc(N4C[C@@H](C)O[C@@H](C)C4)nc3n2)cc1CO

>  <Assay Target>
MARIMO

>  <cell viability (%)>
60.9

$$$$
>  <Compound>
O=C(Nc1cccc(C(F)(F)F)c1)Nc1cc(S(=O)(=O)NC2CC2)ccc1-c1ccsc1

>  <Assay Target>
MARIMO

>  <cell viability (%)>
94.2

$$$$
>  <Compound>
O=C(NC[C@H]1CN(c2ccc(N3CCOCC3=O)cc2)C(=O)O1)c1ccc(Cl)s1

>  <Assay Target>
MARIMO

>  <cell viability (%)>
92.5

$$$$
>  <Compound>
CO[C@H]1C[C@H](O[C@H]2[C@H](C)O[C@@H](O[C@@H]3/C(C)=C/C[C@@H]4C[C@@H](C[C@]5(C=C[C@H](C)[C@@H](C6CCCCC6)O5)O4)OC(=O)[C@@H]4C=C(C)[C@@H](O)[C@H]5OC/C(=C\C=C\[C@@H]3C)[C@]54O)C[C@@H]2OC)O[C@@H](C)[C@@H]1O

>  <Assay Target>
MARIMO

>  <cell viability (%)>
36.8

$$$$
>  <Compound>
CO[C@@H]1[C@H](OC(=O)/C=C/C=C/C=C/C=C/C(=O)O)CC[C@]2(CO2)[C@H]1[C@@]1(C)O[C@@H]1CC=C(C)C

>  <Assay Target>
MARIMO

>  <cell viability (%)>
51.5

$$$$

Q: # query: cell viability | item COc1cc2nc(N3CCN(C(=O)C4COc5ccccc5O4)CC3)nc(N)c2cc1OC (stereo unspecified) [Doxazosin mesylate] | system: MARIMO
A: 105

Q: # query: cell viability | item CCCCCCCCCCCCCCCC(=O)OC [Methyl palmitate] | system: MARIMO
A: 99

Q: # query: cell viability | item O=C(Nc1cc(Cl)cc(Cl)c1O)c1c(O)c(Cl)cc(Cl)c1Cl [Oxyclozanide] | system: MARIMO
A: 97.2

Q: # query: cell viability | item Cc1nc2n(c(=O)c1CCN1CCC(c3noc4cc(F)ccc34)CC1)CCCC2O (stereo unspecified) | system: MARIMO
A: 90.2

Q: # query: cell viability | item NCCOc1ccc(Cl)cc1C(=O)Nc1ccc([N+](=O)[O-])cc1Cl | system: MARIMO
A: 35.4

Q: # query: cell viability | item C[C@H]1[C@@H](O)O[C@@H]2O[C@@]3(C)CC[C@H]4[C@H](C)CC[C@@H]1[C@@]24OO3 [Dihydroartemisinin (DHA)] | system: MARIMO
A: 25

Q: # query: cell viability | item CC1(C)[C@@H](O)CC[C@]2(C)[C@H]3C(=O)C=C4[C@@H]5C[C@@](C)(C(=O)O)CC[C@]5(C)CC[C@@]4(C)[C@]3(C)CC[C@@H]12 | system: MARIMO
A: 109

Q: # query: cell viability | item C=CS(=O)(=O)NC1CCN(C(=O)CNc2cc(I)c(Cl)cc2OC)CC1 [K-Ras(G12C) inhibitor 9] | system: MARIMO
A: 36.4

Q: # query: cell viability | item O=C1Nc2ccc(CN3C(=O)CSC3=O)cc2/C1=C/c1cc(CN2CCOCC2)c[nH]1 | system: MARIMO
A: 97.1

Q: # query: cell viability | item CC(C)(Sc1cc(C(C)(C)C)c(O)c(C(C)(C)C)c1)Sc1cc(C(C)(C)C)c(O)c(C(C)(C)C)c1 | system: MARIMO
A: 99.7

Q: # query: cell viability | item OCc1ccc(O)cc1 [4-Hydroxybenzyl alcohol] | system: MARIMO
A: 98

Q: # query: cell viability | item NC(=O)Nc1sc(-c2ccc(F)cc2)cc1C(N)=O | system: MARIMO
A: 56.3

Q: # query: cell viability | item CCc1cncnc1N1CCN(Cc2nc3ccc(C(F)(F)F)cc3[nH]2)CC1 | system: MARIMO
A: 66.4

Q: # query: cell viability | item CC(C)=CCCC(C)=CCCC(C)=CCCC(C)=CCC1=C(C)C(=O)c2ccccc2C1=O | system: MARIMO
A: 82.8

Q: # query: cell viability | item O=c1[nH]nc2c3c(cccc13)N=C(CN1Cc3ccccc3C1)N2 | system: MARIMO
A: 93

Q: # query: cell viability | item CCNC(=O)c1noc(-c2cc(C(C)C)c(O)cc2O)c1-c1ccc(CN2CCOCC2)cc1 | system: MARIMO
A: 32.3

Q: # query: cell viability | item COC(=O)CCSCc1ccc(-c2onc(C)c2NC(=O)OC(C)c2ccccc2Cl)cc1 (stereo unspecified) | system: MARIMO
A: 87.3

Q: # query: cell viability | item COc1cc2c3cc1Oc1c(OC)c(OC)cc4c1[C@@H](Cc1ccc(O)c(c1)Oc1ccc(cc1)C[C@@H]3N(C)CC2)N(C)CC4 [Berbamine (dihydrochloride)] | system: MARIMO
A: 70.8

Q: # query: cell viability | item C=C(C)[C@@H]1CC[C@]2(C=O)CC[C@]3(C)[C@H](CC[C@@H]4[C@@]5(C)CC[C@H](O)C(C)(C)[C@@H]5CC[C@]43C)[C@@H]12 | system: MARIMO
A: 95.1

Q: # query: cell viability | item O=C1C(=O)c2ccccc2C(O)=C1C1CCC(c2ccc(Cl)cc2)CC1 (stereo unspecified) | system: MARIMO
A: 87.9

Q: # query: cell viability | item Cc1cc(C)nc(NS(=O)(=O)c2ccc(N)cc2)n1 | system: MARIMO
A: 105

Q: # query: cell viability | item O=C(c1ccc(Oc2ccccc2)cc1Cl)c1c[nH]c2ncnc(N[C@@H]3CC[C@@H](CO)OC3)c12 | system: MARIMO
A: 23.1

Q: # query: cell viability | item O=C(O)c1cc(=O)[nH]c(=O)[nH]1 | system: MARIMO
A: 91.1
